test name: Toxicity in zebrafish embryo AB assessed as mortality at 0.5 uM incubated for 72 hrs relative to control
Parameters: species or system Danio rerio
test settings: in vivo, read-out: Activity
reported property: mortality at 72 h, 0.5 µM

# lookup: mortality at 72 h, 0.5 µM of CC1=C(O)C(=O)C=C2C1=CC=C1[C@@]2(C)CC[C@@]2(C)[C@@H]3C[C@](C)(C(=O)O)CC[C@]3(C)CC[C@]12C 100%

----------
target entity: Nuclear receptor subfamily 4immunitygroup A member 1 (Homo sapiens, UniProt P22736)
Sequence (P22736 whole entry, the tested form may be a part): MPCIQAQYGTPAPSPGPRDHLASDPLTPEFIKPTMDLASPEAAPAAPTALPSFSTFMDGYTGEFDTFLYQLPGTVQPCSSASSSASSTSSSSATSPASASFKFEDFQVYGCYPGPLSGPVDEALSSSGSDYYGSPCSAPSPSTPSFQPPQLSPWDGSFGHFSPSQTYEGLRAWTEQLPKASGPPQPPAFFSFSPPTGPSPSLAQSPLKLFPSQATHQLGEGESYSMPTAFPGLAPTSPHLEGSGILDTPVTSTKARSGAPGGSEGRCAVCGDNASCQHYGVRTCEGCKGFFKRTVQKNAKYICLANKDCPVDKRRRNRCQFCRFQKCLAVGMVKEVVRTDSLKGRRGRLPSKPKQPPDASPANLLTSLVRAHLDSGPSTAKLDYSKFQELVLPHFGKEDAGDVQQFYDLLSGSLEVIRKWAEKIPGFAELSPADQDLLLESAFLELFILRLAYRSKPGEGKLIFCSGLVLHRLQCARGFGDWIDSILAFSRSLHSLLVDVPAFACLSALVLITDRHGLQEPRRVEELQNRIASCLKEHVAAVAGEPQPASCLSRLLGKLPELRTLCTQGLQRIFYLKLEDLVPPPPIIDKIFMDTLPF
test name: Binding affinity to recombinant human N-terminal His-tagged Nur77 LBD (367 to 598 residues) expressed in Escherichia coli BL21(DE3) incubated for 30 secs by fluorescence quenching assay
reported property: Kd

Cc1c(O)c(O)cc2c1[C@H](c1cc[nH]c1)C=C1[C@@]2(C)CC[C@@]2(C)[C@@H]3C[C@](C)(C(=O)O)CC[C@]3(C)CC[C@]12C
Not Active
COc1c(O)cc2c(c1C)CC=C1[C@@]2(C)CC[C@@]2(C)[C@@H]3C[C@](C)(C(=O)O)CC[C@]3(C)CC[C@]12C
Not Active
COC(=O)[C@]1(C)CC[C@]2(C)CC[C@]3(C)C4=CCc5c(cc(OC)c(O)c5C)[C@]4(C)CC[C@@]3(C)[C@@H]2C1
Not Active
COc1cc2c(c(C)c1O)CC=C1[C@@]2(C)CC[C@@]2(C)[C@@H]3C[C@](C)(C(=O)O)CC[C@]3(C)CC[C@]12C
Not Active
